# maps each entry to its pEC50
- Test system: Human immunodeficiency virus 1
- TEST DETAILS: Antiviral activity against HIV1 3B in human MT4 cells assessed as protection of cell against virus-induced cytopathogenicity
- Type: functional, organism-based
- PROTOCOL CONDITIONS: Human immunodeficiency virus 1, 3B
The quantity pEC50 is defined as the negative base-10 logarithm of the molar concentration.

# count of solved cases: 2
[[record]]
compound_structure_string = "COc1ccc(-c2nnsc2SCC(=O)Nc2ccccc2[N+](=O)[O-])cc1"
target_or_test_system = "Human immunodeficiency virus 1"
result = 6.00

[[record]]
compound_structure_string = "O=C(CSc1snnc1-c1ccc(Cl)cc1Cl)Nc1ccccc1Br"
target_or_test_system = "Human immunodeficiency virus 1"
result = 6.83


Exercise: Please give the documented pEC50 of `O=C1Nc2ccc(Cl)cc2[C@@](C#CC2CC2)(C(F)(F)F)O1`
Key: 8.36

Exercise: Please give the documented pEC50 of `O=C(CSc1snnc1-c1ccc(Cl)cc1Cl)Nc1ccccc1Cl`
Key: 6.93

Exercise: Please give the documented pEC50 of `O=C(CSc1snnc1-c1ccc(Cl)cc1Cl)Nc1ccccc1F`
Key: 6.87

Exercise: Please give the documented pEC50 of `O=C(CSc1snnc1-c1ccc(F)cc1F)Nc1ccccc1[N+](=O)[O-]`
Key: 5.38

Exercise: Please give the documented pEC50 of `O=C(CSc1snnc1-c1ccc(Cl)cc1Cl)Nc1ccccc1[N+](=O)[O-]`
Key: 7.23

====

# maps each entry to its CC50
- TEST DETAILS: Cytotoxicity against human MT4 cells
- Format: cell-based

Exercise: Please give the documented CC50 of `CCOC(=O)c1ccc(NC(=O)CSc2snnc2-c2ccc(Cl)cc2Cl)c(Br)c1`
Key: > 228 µM

Exercise: Please give the documented CC50 of `CCOC(=O)c1ccc(NC(=O)CSc2snnc2-c2ccccc2)c(Br)c1`
Key: ≥ 232 µM

Exercise: Please give the documented CC50 of `O=C(CSc1snnc1-c1ccc(F)cc1F)Nc1ccccc1F`
Key: 148 µM

Exercise: Please give the documented CC50 of `COc1ccc(-c2nnsc2SCC(=O)Nc2ccc(C)cc2Br)cc1`
Key: 249 µM

Exercise: Please give the documented CC50 of `O=C(CSc1snnc1-c1ccc(Cl)cc1Cl)Nc1ccccc1[N+](=O)[O-]`
Key: > 283 µM

Exercise: Please give the documented CC50 of `O=C(CSc1snnc1-c1ccc(Cl)cc1Cl)Nc1ccccc1Br`
Key: ≥ 147 µM

====

- TEST DETAILS: Cytotoxicity against human MT4 cells
- Type: cell-based
REPORTED PROPERTY: CC50

# count of solved cases: 6
[[record]]
molecule = "O=C(CSc1snnc1-c1ccccc1)Nc1ccccc1Cl"
result = "> 345 µM"

[[record]]
molecule = "O=C(CSc1snnc1-c1ccc(F)cc1F)Nc1ccccc1Br"
result = "144 µM"

[[record]]
molecule = "Cc1ccc(NC(=O)CSc2snnc2-c2ccc(F)cc2F)c(Br)c1"
result = "> 274 µM"

[[record]]
molecule = "COc1ccc(-c2nnsc2SCC(=O)Nc2ccccc2F)cc1"
result = "> 333 µM"

[[record]]
molecule = "COC(=O)c1ccc(NC(=O)CSc2snnc2-c2ccc(OC)cc2)c(Br)c1"
result = "195 µM"

[[record]]
molecule = "COc1ccc(-c2nnsc2SCC(=O)Nc2ccccc2Br)cc1"
result = "> 286 µM"


Exercise: Please give the documented CC50 of O=C1Nc2ccc(Cl)cc2[C@@](C#CC2CC2)(C(F)(F)F)O1 [EFAVIRENZ]
Key: > 6.34 µM

Exercise: Please give the documented CC50 of `Cc1ccc(NC(=O)CSc2snnc2-c2ccccc2)c(Br)c1`
Key: > 297 µM

====

# maps each entry to its selectivity ratio
- TEST DETAILS: Selectivity index, ratio of CC50 for human MT4 cells to EC50 for HIV1 3B
- Assay type: toxicity, cell-based
- PROTOCOL CONDITIONS: MT4 cells, read-out: Ratio CC50/EC50

[[record]]
compound_structure_string = "O=C(CSc1snnc1-c1ccccc1)Nc1ccccc1Cl"
result = "> 13"

[[record]]
compound_structure_string = "CCOC(=O)c1ccc(NC(=O)CSc2snnc2-c2ccc(OC)cc2)c(Br)c1"
result = "> 82"

[[record]]
compound_structure_string = "COc1ccc(-c2nnsc2SCC(=O)Nc2ccccc2Cl)cc1"
result = "> 121"

[[record]]
compound_structure_string = "O=C(CSc1snnc1-c1ccc(Cl)cc1Cl)Nc1ccccc1[N+](=O)[O-]"
result = "> 4880"


Exercise: Please give the documented selectivity ratio of `Cc1ccc(NC(=O)CSc2snnc2-c2ccccc2)c(Br)c1`
Key: > 22

Exercise: Please give the documented selectivity ratio of `COc1ccc(-c2nnsc2SCC(=O)Nc2ccc(C)cc2Br)cc1`
Key: 49

Exercise: Please give the documented selectivity ratio of `COC(=O)c1ccc(NC(=O)CSc2snnc2-c2ccccc2)c(Br)c1`
Key: > 53

Exercise: Please give the documented selectivity ratio of `Cc1ccc(NC(=O)CSc2snnc2-c2ccc(F)cc2F)c(Br)c1`
Key: > 189

Exercise: Please give the documented selectivity ratio of `Cc1cn([C@H]2C[C@H](N=[N+]=[N-])[C@@H](CO)O2)c(=O)[nH]c1=O`
Key: > 6190

====

- TEST DETAILS: Selectivity index, ratio of CC50 for human MT4 cells to EC50 for HIV1 3B
- Format: toxicity, cell-based
- PROTOCOL CONDITIONS: MT4 cells, read-out: Ratio CC50/EC50
REPORTED PROPERTY: selectivity ratio
Please respond with just the number, no unit label.

[[record]]
compound_structure_string = "COC(=O)c1ccc(NC(=O)CSc2snnc2-c2ccc(OC)cc2)c(Br)c1"
result = 97

[[record]]
compound_structure_string = "O=C(CSc1snnc1-c1ccc(F)cc1F)Nc1ccccc1[N+](=O)[O-]"
result = 40

[[record]]
compound_structure_string = "O=C(CSc1snnc1-c1ccc(Cl)cc1Cl)Nc1ccccc1F"
result = 145


Proceed to the following item.
Exercise: Please give the documented selectivity ratio of `O=C(CSc1snnc1-c1ccc(Cl)cc1Cl)Nc1ccccc1Cl`
Key: 943

====

- System: Human immunodeficiency virus 1
- TEST DETAILS: Antiviral activity against HIV1 3B in human MT4 cells assessed as protection of cell against virus-induced cytopathogenicity
- Format: functional, organism-based
- PROTOCOL CONDITIONS: Human immunodeficiency virus 1, 3B
REPORTED PROPERTY: log10(EC50) (log10 of the value in µM)
Remember, log10 of EC50, in µM.

[[record]]
compound_structure_string = "CCOC(=O)c1ccc(NC(=O)CSc2snnc2-c2ccccc2)c(Br)c1"
reported_property = "log10(EC50)"
result = 0.72


Exercise: Please give the documented log10(EC50) of `Cc1cn([C@H]2C[C@H](N=[N+]=[N-])[C@@H](CO)O2)c(=O)[nH]c1=O`
Key: -1.82

Exercise: Please give the documented log10(EC50) of `COc1ccc(-c2nnsc2SCC(=O)Nc2ccc(C)cc2Br)cc1`
Key: 0.70

Exercise: Please give the documented log10(EC50) of `O=C(CSc1snnc1-c1ccc(F)cc1F)Nc1ccccc1F`
Key: 0.74

Exercise: Please give the documented log10(EC50) of `CC(C)Nc1cccnc1N1CCN(C(=O)c2cc3cc(NS(C)(=O)=O)ccc3[nH]2)CC1`
Key: -0.49

====

- Tested on: Human immunodeficiency virus 1
- TEST DETAILS: Antiviral activity against HIV1 3B in human MT4 cells assessed as protection of cell against virus-induced cytopathogenicity
- Format: functional, organism-based
- PROTOCOL CONDITIONS: Human immunodeficiency virus 1, 3B
REPORTED PROPERTY: EC50 (nM)
Field: numeric (nM). Do not append units.

# count of solved cases: 3
[[record]]
compound_structure_string = "COc1ccc(-c2nnsc2SCC(=O)Nc2ccccc2F)cc1"
reported_property = "EC50"
result = 333000

[[record]]
compound_structure_string = "O=C(CSc1snnc1-c1ccc(F)cc1F)Nc1ccccc1Br"
reported_property = "EC50"
result = 2260

[[record]]
compound_structure_string = "O=C(CSc1snnc1-c1ccccc1)Nc1ccccc1Br"
reported_property = "EC50"
result = 22400


Exercise: Please give the documented EC50 of `CCOC(=O)c1ccc(NC(=O)CSc2snnc2-c2ccc(OC)cc2)c(Br)c1`
Key: 3010

Exercise: Please give the documented EC50 of `Cc1ccc(NC(=O)CSc2snnc2-c2ccccc2)c(Br)c1`
Key: 13700

Exercise: Please give the documented EC50 of `COc1ccc(-c2nnsc2SCC(=O)Nc2ccccc2Cl)cc1`
Key: 2630

Exercise: Please give the documented EC50 of `Cc1ccc(NC(=O)CSc2snnc2-c2ccc(F)cc2F)c(Br)c1`
Key: 1450

Exercise: Please give the documented EC50 of `O=C(CSc1snnc1-c1ccc(F)cc1F)Nc1ccccc1Cl`
Key: 1230

Exercise: Please give the documented EC50 of `COC(=O)c1ccc(NC(=O)CSc2snnc2-c2ccc(OC)cc2)c(Br)c1`
Key: 2000

Exercise: Please give the documented EC50 of `COc1ccc(-c2nnsc2SCC(=O)Nc2ccccc2Br)cc1`
Key: 3190

Exercise: Please give the documented EC50 of `NS(=O)(=O)c1ccc(NC(=O)CSc2nnc(Br)n2-c2ccc(C3CC3)c3ccccc23)c(Cl)c1`
Key: 140

Exercise: Please give the documented EC50 of `Cc1ccc(-n2c(C)nnc2SCC(=O)Nc2ccccc2)cc1`
Key: 2050

Exercise: Please give the documented EC50 of `O=C(CSc1snnc1-c1ccccc1)Nc1ccccc1F`
Key: 362000

Exercise: Please give the documented EC50 of `O=C(CSc1snnc1-c1ccccc1)Nc1ccccc1Cl`
Key: 26100

Exercise: Please give the documented EC50 of `COC(=O)c1ccc(NC(=O)CSc2snnc2-c2ccccc2)c(Br)c1`
Key: 5100

Exercise: Please give the documented EC50 of `CCOC(=O)c1ccc(NC(=O)CSc2snnc2-c2ccc(Cl)cc2Cl)c(Br)c1`
Key: 99

Exercise: Please give the documented EC50 of `Cc1ccc(NC(=O)CSc2snnc2-c2ccc(Cl)cc2Cl)c(Br)c1`
Key: 204

From: ChEMBL document CHEMBL1142475
